These entries and their values trace back to patent KR20220054080A.

Measured log10 of IC50 accompanies every entry in the list below.
target: T1, SARS-CoV-2 RBD-mFc (SARS-CoV-2, UniProt P0DTC2 319-541); experiment: competition ELISA: RBD-mFc on coated ACE2-His
T1 construct: range 319-541
Friendly reminder: values = log10 of IC50, unit nM.

// query Need log10 of IC50 of SA3779 (antibody, V domains shown) VH: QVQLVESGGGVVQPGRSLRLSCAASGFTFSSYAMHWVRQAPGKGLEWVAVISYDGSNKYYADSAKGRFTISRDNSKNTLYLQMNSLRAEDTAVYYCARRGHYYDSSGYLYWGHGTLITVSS VL: DIQMTQSPSSLSASVGDRVTITCRASQRIATYLHWYQQKPGRAPKLLIYAASSLQTGVPSRFSGSGSGTDFTLTINSLQPEDFATYYCQQSYAIPYTFGQGTKLEIK , thanks.
// result 0.90

// query Then what about the binder SA4118 (antibody, V domains shown) VH: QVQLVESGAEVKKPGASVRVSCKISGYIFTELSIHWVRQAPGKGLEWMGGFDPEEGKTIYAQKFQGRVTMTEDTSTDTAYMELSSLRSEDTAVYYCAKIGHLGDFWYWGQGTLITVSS VL: QSALTQPASVSGSPGQSITISCTGTTSDIGSYDYVSWYQQHPGKAPKLIIYGVTRRPSGVSNRFSGSKSGNTASLTISGLQAEDEANYYCSSCTRSSTYVFGTGTKVTVL ?
// result -0.15

// query Moving on to SA3755 (antibody, V domains shown) VH: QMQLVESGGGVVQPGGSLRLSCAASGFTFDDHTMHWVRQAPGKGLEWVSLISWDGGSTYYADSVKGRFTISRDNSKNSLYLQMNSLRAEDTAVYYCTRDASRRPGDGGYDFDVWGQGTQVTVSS VL: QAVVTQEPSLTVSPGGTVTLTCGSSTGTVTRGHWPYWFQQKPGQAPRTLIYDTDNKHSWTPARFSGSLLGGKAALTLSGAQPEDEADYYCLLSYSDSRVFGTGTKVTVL
// result 0.76

// query Ok, now SA3827 (antibody, V domains shown) VH: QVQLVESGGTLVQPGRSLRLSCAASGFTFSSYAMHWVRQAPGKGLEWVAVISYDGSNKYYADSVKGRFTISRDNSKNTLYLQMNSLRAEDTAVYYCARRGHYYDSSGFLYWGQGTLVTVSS VL: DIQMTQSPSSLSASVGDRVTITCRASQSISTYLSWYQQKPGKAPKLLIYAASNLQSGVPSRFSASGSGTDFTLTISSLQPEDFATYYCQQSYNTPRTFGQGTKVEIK
// result -0.49
